All values here come from a flash point compilation (Sun et al. 2020).

PROPERTY: flash point (°C)

Here are 8 compounds together with their reported answers.
>  <COMPOUND>
C[Si](C)(C)O[SiH](O[Si](C)(C)C)O[Si](C)(C)C [Tris(trimethylsiloxy)silane]

>  <UNIT_STRING>
°C

>  <flash point>
50.00

$$$$
>  <COMPOUND>
CC[SiH2]CC [Diethylsilane]

>  <UNIT_STRING>
°C

>  <flash point>
-20.00

$$$$
>  <COMPOUND>
[SiH3]c1ccccc1 [Phenylsilane]

>  <UNIT_STRING>
°C

>  <flash point>
8.00

$$$$
>  <COMPOUND>
CO[Si](C)(C)OC [Dimethyldimethoxysilane]

>  <UNIT_STRING>
°C

>  <flash point>
-8.00

$$$$
>  <COMPOUND>
C[Si](Cl)(Cl)CCC#N [2-Cyanoethylmethyldichlorosilane]

>  <UNIT_STRING>
°C

>  <flash point>
60.00

$$$$
>  <COMPOUND>
CCCO[Si](C)(C)C [Trimethyl-n-propoxysilane]

>  <UNIT_STRING>
°C

>  <flash point>
10.00

$$$$
>  <COMPOUND>
C[Si](C)(Cl)c1ccccc1 [Phenyldimethylchlorosilane]

>  <UNIT_STRING>
°C

>  <flash point>
61.00

$$$$
>  <COMPOUND>
C[Si](C)(C)C [Tetramethylsilane]

>  <UNIT_STRING>
°C

>  <flash point>
-28.00

$$$$

1 = C[Si](Cl)(c1ccccc1)c1ccccc1 [Methyldiphenylchlorosilane]
2 = CN(C)[SiH](N(C)C)N(C)C [Tris(dimethylamino)silane]
Ask: Short answer wanted: higher flash point, 1 or 2 ? // respond with label for picked entry
Result: 1
(1: 138.00 °C, 2: 25.00 °C)
